Each record here notes measured Whole blood IFNγ assay, Bioactivity relative to TL1A-0002.
# system name: T1, recombinant human TL1A (human, UniProt O95150 71-251)
# T1 chain: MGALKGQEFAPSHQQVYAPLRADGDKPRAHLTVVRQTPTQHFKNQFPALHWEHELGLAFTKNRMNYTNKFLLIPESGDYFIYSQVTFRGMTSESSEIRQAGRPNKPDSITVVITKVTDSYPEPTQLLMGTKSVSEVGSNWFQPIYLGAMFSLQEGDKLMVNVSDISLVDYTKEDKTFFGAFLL
# method summary: cell-based or functional assay
Number only, in fold; omit the unit.

TL1A-0266 (antibody, human IgG1, kappa, V domains shown, human IgG1 effector-function-minimized/kappa) VH: QVQLVQSGAEVKKPGASVKVSCKASGYDYTYYGISWVRQAPGQGLEWMGWISTYNTNTHYAPSLQGRVTMTTDTSTSTAYMELRSLRSDDTAVYYCARESYYGSGAFRGGMDVWGQGTTVTVSS VL: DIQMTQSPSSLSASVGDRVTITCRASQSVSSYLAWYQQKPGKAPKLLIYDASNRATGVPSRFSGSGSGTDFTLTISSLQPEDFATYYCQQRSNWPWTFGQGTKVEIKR = 0.9

Please examine the following record next.
Data request: Give its Whole blood IFNγ assay, Bioactivity relative to TL1A-0002 value. Item: TL1A-0280 (antibody, human IgG1, kappa, V domains shown, human IgG1 effector-function-minimized/kappa) VH: QVQLVQSGAEVKKPGASVKVSCKASGYDFSYYGISWVRQAPGQGLEWMGWISTYNTNTHYAPSLQGRVTMTTDTSTSTAYMELRSLRSDDTAVYYCARESYYGSGAFRGGMDVWGQGTTVTVSS VL: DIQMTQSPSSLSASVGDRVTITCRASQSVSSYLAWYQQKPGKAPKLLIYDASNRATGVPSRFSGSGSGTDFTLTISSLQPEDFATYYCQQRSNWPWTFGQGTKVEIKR
Data returned: 1.1
